// data source = patent US11001600B2

pIC50 values, listed per item
# testedOn: Human Factor D (Homo sapiens (Human), UniProt P00746)
# Sequence (P00746 26-253): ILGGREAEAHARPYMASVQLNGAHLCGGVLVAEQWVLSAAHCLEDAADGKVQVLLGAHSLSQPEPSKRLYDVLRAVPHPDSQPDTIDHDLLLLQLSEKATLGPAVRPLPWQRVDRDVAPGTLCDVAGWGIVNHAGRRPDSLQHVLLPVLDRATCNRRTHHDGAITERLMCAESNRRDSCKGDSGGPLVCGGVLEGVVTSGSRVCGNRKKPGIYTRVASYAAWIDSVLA
# protocolDescription: Human Factor D assay
# Format: biochemical
# measurementConditions: Factor D 80 nM, substrate Z-L-Lys-SBzl; Table 1; read-out: IC50
pIC50: −log10 of the molar value.
observable: pIC50

# recordSmiles, observable, reading
measured = [
    ("CC(=O)c1cn(CC(=O)N2C[C@H](F)C[C@H]2C(=O)Nc2cccc(Br)n2)c2cc(OCP(=O)(O)O)c(-c3cnc(C)nc3)cc12", "pIC50", "> 6.00"),
    ("CC(=O)c1cn(CC(=O)N2C[C@H](F)C[C@H]2C(=O)Nc2cccc(-c3ccccc3Cl)c2F)c2cc(OCP(=O)(O)O)c(-c3cnc(C)nc3)cc12", "pIC50", "> 6.00"),
    ("CCOP(=O)(COc1cc2c(cc1-c1cnc(C)nc1)c(C(C)=O)cn2CC(=O)N1C[C@H](F)C[C@H]1C(=O)Nc1cccc(-c2ccccc2Cl)c1F)OCC", "pIC50", "> 6.00"),
]
